- System: K4 kissing-loop RNA reporter;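 note: bound reporter read as fluorescence of individual clusters on recovered sequencing chips by microscopy, with normalized cluster intensities fitted with a binding model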
- assay.comment: apparent KD of K4 kissing-loop reporter; higher = weaker reporter binding
- setup.conditions: Eterna round: R107; input ligand: FMN 200 uM
experimental.readout: apparent KD of K4 kissing-loop reporter (µM)
Just the number in µM, nothing appended.

Req: apparent KD of K4 kissing-loop reporter for CAUAUAUAUAGAGGAUAUCGAGUAGAGUGAUGUUCUGCCUGGGUUGGCUCGCAAGGGCCUUCCCAGCGAGAAGGCUAUAUAUAUG [harrys-mod#1ED5.33] ?
Resp: 0.225

Req: Quick one: apparent KD of K4 kissing-loop reporter of AGGUACUACGGAAGGAGCGCACCAGUGAUGUUGGUGUGUGACCGUGACAUGGCAGUCAAGGUGCAGGUAGGUCGCCGUGGCCUUU [Anatartibe] ?
Resp: 0.143

Req: Entry GGCAGUGAUGUUGCCAGUGGCAGAUGCGAAGGAGCGCGGUGAGACGCAGGUAGGUCGCGCAUUGAAAUUGCUGUCACUAGAAUGC [whbob_Ex_Arginine_A_2t127] : reported apparent KD of K4 kissing-loop reporter = ?
Resp: 0.258

* * *

- System: MS2 coat protein
- assay.comment: apparent KD of MS2 coat protein, switch ON state; designed switch direction (-1 OFF switch, 1 ON switch): -1; higher = weaker reporter binding
- setup.conditions: FMN input: 0 or 200 uM; Eterna round: R93 (includes R88 designs)
Rule: apparent KD of MS2 coat protein of 40 nM or more gives Y; anything lower gives N.

Req: Reported apparent KD of MS2 coat protein reaches at least 40 nM for CUUAUGUCAGGAUAUCAGUAGUAAAAAAAUAAAAUUACUACUGAGAAGGGACAUGAGGAUCACCCAUGUCAAAA [EX4 365: Super Stable 65] ?
Resp: Y

Req: Answer whether apparent KD of MS2 coat protein of AAAAAGGUAGGAUAUACGAAAAAAAAGGGUAGAAAAAAAACACAUGAGGAUCACCCAUGUAGAAGGACCAAAAA [Ex 2 sub 1] is greater than or equal to 40 nM.
Resp: N

Req: Dear colleague, could you confirm whether AAAAAUGGAGGAUAUACAUGAGGAUCACCCAUGUGUAACAAAACAAAACACAAAAAAAGUAGAAGGCCAAAAAA [Gilly Gone Silly 5 - Jieux - Exclusion 3] has apparent KD of MS2 coat protein at or above 40 nM?
Resp: N

Req: Hi, just wondering whether AAGAAGGUAGGAUAUGCUAAAGAAAUAAAAAUAAAUAAAGAACAUGAGGAUCACCCAUGUAGAAGGGCCAAGAA [Mer[...]re] shows apparent KD of MS2 coat protein of 40 nM or higher.
Resp: Y

Req: Determine whether measured apparent KD of MS2 coat protein meets or exceeds 40 nM for CCGAGACAUGAGGAUCACCCAUGUGAGGAUAUAGGUGUAUGCAAAAAAAAGUUAAAAACUAGAAGGCACAGAGG [JR_Exc001_Sub307]
Resp: N

Req: Test whether the sequence AACAGGACAGGAUAUACAUGAGGAUCACCCAUGUGAAGAUUAAGAAGAAAACCACAAAGUAGAAGGGUCCUGGA [Ruby 94] records apparent KD of MS2 coat protein of 40 nM or higher.
Resp: N

Req: Given the entry AGCUAGUCAGGAUAUACGAACAUGACAAAAGACGUGAAGGGACAUGAGGAUCACCCAUGUAGAAGGGACUAGCA [74%, Web mod - With 1 less U's] , answer whether its apparent KD of MS2 coat protein meets or surpasses 40 nM.
Resp: N

Req: Does the reported apparent KD of MS2 coat protein for AAAAAGUUAGGAUAUACAUGAGGAUCACCCAUGUACAUAUAUGGAGAAUAUAGUAGUAGUAGAAGGGACAAAAA [EX2 Malc#14] fall at or above the 40 nM mark?
Resp: N

Req: Threshold query (apparent KD of MS2 coat protein >= 40 nM) on AAGAAGUCAGGAUAUGCCAGAGAACAAGAAAGUGAAGAAUAGCAGAAGGGACAUGAGGAUCACCCAUGUAAAGA [Opal 11]
Resp: Y

Req: Hi team, for AAAAAGUAAGGAUAUGCGAAUAAAUAAGAAGAAGAAAGAAAGCAGAAGGUACAUGAGGAUCACCCAUGUAAAAA [Ex 4 Tesla 1] , is the recorded apparent KD of MS2 coat protein at or above 40 nM?
Resp: N

Req: Test whether the sequence GGAAAGCGAGGAUAUACAUGAGGAUCACCCAUGUUAACAAACAAACAAACAAACAAAAGUAGAAGGCGCAAAAU [Exclusion 3 This and That] records apparent KD of MS2 coat protein of 40 nM or higher.
Resp: Y

Req: State whether the measured apparent KD of MS2 coat protein reaches 40 nM, counting equality as reaching it, for AAGAAGAGAGGAUAUACAUGAGGAUCACCCAUGUAAAAGAAAGAAGGGAAAGAGAAAAGUAGAAGGCUCAAGAA [Usermaatre-setpenamun Rudamun]
Resp: N

Req: Threshold query (apparent KD of MS2 coat protein >= 40 nM) on AAAUUAGCAGGAUAUACUAGGGUCCACCGAACUCUGAAAAGACAUGAGGAUCACCCAUGUAGAAGGGCUUCGAA [Atileso]
Resp: N

Req: Does apparent KD of MS2 coat protein meet or surpass 40 nM for AACAGGUCAGGAUAUGUGGAAAAAAUAAAAAAAAUAAAAACACAGAAGGGACAUGAGGAUCACCCAUGUUAACA [May 25] ?
Resp: N

Req: For this sequence, is measured apparent KD of MS2 coat protein 40 nM or higher? AGAGAGUCAGGAUAUACGAAAGAAAAGGGAAACAACAAGGGACAUGAGGAUCACCCAUGUAGAAGGGACGAGAA [Diamond 99]
Resp: Y

Req: Form field: apparent KD of MS2 coat protein at least 40 nM? Entry: AGCUAGUGAGGAUAUGCGAACAUGUCAAAAGACGUGAAGGGACAUGAGGAUCACCCAUGUAGAAGGCGCUAGCA [JL 74% mod 2]
Resp: N

Req: Given the entry AAAAAGUCAGGAUAUGCAGAUAAAAAAACGAAAAAAAAUCUGCAGAAGGGACAUGAGGAUCACCCAUGUAAAAA [Ex 4 May 5] , answer whether its apparent KD of MS2 coat protein meets or surpasses 40 nM.
Resp: Y

Req: Could you tell me if the measured apparent KD of MS2 coat protein of AGUUGGCGAGGAUAUACAUGAGGAUCACCCAUGUGAAAUAAAUAAAAAAUAAAAGGGAGUAGAAGGCGCUGACA [73%, Moding Norbert Elias, 17] reaches 40 nM or more?
Resp: Y

Req: In plain terms: is recorded apparent KD of MS2 coat protein at least 40 nM for AGUAGAUCAGGAUAUACGUGAAAGGUCAAAGUGUCACUUCUACAUGAGGAUCACCCAUGUAGAAGGGAUCUACA [Ex2 Design 122: Not so Super Stable 9] ?
Resp: N

Req: Is the recorded value of apparent KD of MS2 coat protein equal to or greater than 40 nM for this sequence? AGCUAGUGAGGAUAUACGAACACGUAACAGGACUGUAAGGGACAUGAGGAUCACCCAUGUAGAAGGCACUAGCA [Diamond 61]
Resp: N

Req: apparent KD of MS2 coat protein >= 40 nM for AAAGGCUUAGGAUAUACAGUGGUCCCAAUGGGCAUCCGAAAACAUGAGGAUCACCCAUGUAGAAGGAAGAAAAU [Raleor] ?
Resp: Y

Req: Evaluate GAAAAACAUGAGGAUCACCCAUGUCAGGAUAUCCAAAUAAAAAUAAAAUAAAAUAAAAGGAGAAGGGACAAAAG [Mat - Same state - Mayanna Mod - D101] : apparent KD of MS2 coat protein at minimum 40 nM?
Resp: Y

Req: Identify whether the reported apparent KD of MS2 coat protein of the following sequence is 40 nM or greater: AGGGAACAUGAGGAUCACCCAUGUGAGGAUAUUGAAAAGAAAAGAAAAGAAAGAAGAACAAGAAGGUACAAGAA [Meryre Pepi I]
Resp: N

Req: Please check the record AAAUAGUUAGGAUAUACAUGAGGAUCACCCAUGUGCACGUAUGGAGAAUAUGGUAAUGGUAGAAGGGACUAAAA [EX2 Malc#21] and state if its apparent KD of MS2 coat protein is at or above 40 nM.
Resp: Y

Req: Please check the record CAGUACUGAGGAUAUACAUGAGGAUCACCCAUGUAUCCAAGCUAGGAAACUAGCACAUGUAGAAGGCAGUACUG [Ex3: 822] and state if its apparent KD of MS2 coat protein is at or above 40 nM.
Resp: Y

Req: Does the sequence AAAAAACAUGAGGAUCACCCAUGUGAGGAUAUCCAGAAGGGAAUAAAAUAACACGAAAGGAGAAGGCGCAAAAA [Ex 1 May 35] have recorded apparent KD of MS2 coat protein that is 40 nM or more?
Resp: N
